System: B. licheniformis VKPM B-8610
EXPERIMENT_DESCRIPTION: Sensitivity to antibiotics, delay zones of culture growth
Format: cell-based, Bacillus licheniformis
CONDITION: strain B. licheniformis VKPM B-8610
So I've got a bunch of molecules here, and I need their Diameter of delay zones of cultures growth values.

Field: example entries. Status: answers known.
molecule="CCC[C@@H]1C[C@@H](C(=O)N[C@@H]([C@H]2O[C@H](SC)[C@H](O)[C@@H](O)[C@H]2O)[C@H](C)Cl)N(C)C1 [Clindamycin]" obs_value="12 + 0.1 mm"
molecule="CO[C@@]1(NC(=O)C(C(=O)O)c2ccc(O)cc2)C(=O)N2C(C(=O)O)=C(CSc3nnnn3C)CO[C@@H]21 (some centres unmarked) [Mocsalactam]" obs_value="12 + 03 mm"
molecule="CC1(C)S[C@@H]2[C@H](NC(=O)[C@H](NC(=O)N3CCN(S(C)(=O)=O)C3=O)c3ccccc3)C(=O)N2[C@H]1C(=O)O [Mezlocillin]" obs_value="15 + 0.2 mm"
molecule="NC[C@H]1O[C@H](O[C@H]2[C@H](O)[C@@H](O[C@H]3O[C@H](CO)[C@@H](O)[C@H](N)[C@H]3O)[C@H](N)C[C@@H]2N)[C@H](N)C[C@@H]1O [Tobramycin]" obs_value="20 + 0.2 mm"

We next turn to a different molecule, shown below.
query: Quick check: Diameter of delay zones of cultures growth of CCN1CCN(C(=O)N[C@@H](C(=O)N[C@@H]2C(=O)N3[C@@H]2SC(C)(C)[C@@H]3C(=O)O)c2ccccc2)C(=O)C1=O [Piperacillin] ?
result: 11 + 0.1 mm

---

Kindly supply the reported Diameter of delay zones of cultures growth values for the records listed here.
System: B. licheniformis VKPM B-8610
EXPERIMENT_DESCRIPTION: Sensitivity to antibiotics, delay zones of culture growth
Type: cell-based, Bacillus licheniformis
CONDITION: strain B. licheniformis VKPM B-8610

Reference set (3 entries):
molecule_smiles=CO/N=C(\C(=O)N[C@@H]1C(=O)N2C(C(=O)O)=C(CSc3nc(=O)c(=O)[nH]n3C)CS[C@H]12)c1csc(N)n1 obs_value="12 + 02 mm"
molecule_smiles=CO/N=C(\C(=O)N[C@@H]1C(=O)N2C(C(=O)O)=CCS[C@H]12)c1csc(N)n1 obs_value="11 ± 0.1 mm"
molecule_smiles=CC1(C)S[C@@H]2[C@H](NC(=O)[C@H](N)c3ccccc3)C(=O)N2[C@H]1C(=O)O obs_value="0 mm"

Each compound below has a reported value. Please supply its Diameter of delay zones of cultures growth.
1. COc1cccc(OC)c1C(=O)N[C@@H]1C(=O)N2[C@@H]1SC(C)(C)[C@@H]2C(=O)O
2. CC1(C)S[C@@H]2[C@H](NC(=O)[C@H](NC(=O)N3CCNC3=O)c3ccccc3)C(=O)N2[C@H]1C(=O)O

result:
1: 10 ± 0D; 2: 16 + 0.1 mm

Each compound below has a recorded value; state its Diameter of delay zones of cultures growth.
1. CN(C)[C@@H]1C(O)=C(C(N)=O)C(=O)[C@@]2(O)C(O)=C3C(=O)c4c(O)cccc4[C@@](C)(O)[C@H]3C[C@@H]12
2. O=C1CN(/N=C/c2ccc([N+](=O)[O-])o2)C(=O)N1
3. Cc1nnc(SCC2=C(C(=O)O)N3C(=O)[C@@H](NC(=O)Cn4cnnn4)[C@H]3SC2)s1

result:
1. 24 + 0.1 mm
2. 20 + 0.1 mm
3. 19 + 0.2 mm

---

Test system: B. licheniformis VKPM B-8610
EXPERIMENT_DESCRIPTION: Sensitivity to antibiotics, delay zones of culture growth
Type: cell-based, Bacillus licheniformis
CONDITION: strain B. licheniformis VKPM B-8610
Please provide measured Diameter of delay zones of cultures growth for the entries that follow.

compound="CC(C)(O/N=C(\\C(=O)N[C@@H]1C(=O)N2C(C(=O)[O-])=C(C[n+]3ccccc3)CS[C@H]12)c1csc(N)n1)C(=O)O [Ceftazidime]" measured_target="B. licheniformis VKPM B-8610" obs_value="13 + 02 mm"
compound="CC1(C)S[C@@H]2[C@H](NC(=O)C(C(=O)O)c3ccccc3)C(=O)N2[C@H]1C(=O)O (stereo partly shown) [Carbenicillin]" measured_target="B. licheniformis VKPM B-8610" obs_value="20 + 0.1 mm"
compound="NCC[C@H](O)C(=O)N[C@@H]1C[C@H](N)[C@@H](O[C@H]2O[C@H](CN)[C@@H](O)[C@H](O)[C@H]2O)[C@H](O)[C@H]1O[C@H]1O[C@H](CO)[C@@H](O)[C@H](N)[C@H]1O [Amicacin]" measured_target="B. licheniformis VKPM B-8610" obs_value="17 + 0.2 mm"
compound="C[C@@H](O)[C@H]1C(=O)N2C(C(=O)O)=C(SCCN=CN)C[C@H]12 [Imipenems]" measured_target="B. licheniformis VKPM B-8610" obs_value="30 + 0.1 mm"
compound="COc1cc(Cc2cnc(N)nc2N)cc(OC)c1OC [Ttrimethoprim]" measured_target="B. licheniformis VKPM B-8610" obs_value="25 + 0.2 mm"

Would you mind giving Diameter of delay zones of cultures growth for every compound in the list below?
1. CC1(C)S[C@@H]2[C@H](NC(=O)[C@H](C(=O)O)c3ccsc3)C(=O)N2[C@H]1C(=O)O [Ticarcillin]
2. Cc1onc(-c2ccccc2)c1C(=O)N[C@@H]1C(=O)N2[C@@H]1SC(C)(C)[C@@H]2C(=O)O [Oxacillin]
3. CO/N=C(\C(=O)N[C@@H]1C(=O)N2C(C(=O)O)=C(COC(N)=O)CS[C@H]12)c1ccco1 [Cefuroxime]
4. CO/N=C(\C(=O)N[C@@H]1C(=O)N2C(C(=O)O)=C(COC(C)=O)CS[C@H]12)c1csc(N)n1 [Cefotaxime]
5. CC1(C)S[C@@H]2[C@H](NC(=O)Cc3ccccc3)C(=O)N2[C@H]1C(=O)O [Benzylpenicillin]
6. CN[C@H](CC(C)C)C(=O)N[C@H]1C(=O)N[C@@H](CC(N)=O)C(=O)N[C@H]2C(=O)N[C@H]3C(=O)N[C@H](C(=O)N[C@H](C(=O)O)c4cc(O)cc(O)c4-c4cc3ccc4O)[C@H](O)c3ccc(c(Cl)c3)Oc3cc2cc(c3O[C@@H]2O[C@H](CO)[C@@H](O)[C@H](O)[C@H]2O[C@H]2C[C@](C)(N)[C@H](O)[C@H](C)O2)Oc2ccc(cc2Cl)[C@H]1O [Vancomycin]

result:
1. 21 + 0.2 mm
2. 11 + 0.1 mm
3. 3 ± 0.1 mm
4. 9 + 0.1 mm
5. 3 ± 0.2 mm
6. 10 ± 0.1 mm

Give measured Diameter of delay zones of cultures growth for every item shown.
1. CO[C@@]1(NC(=O)Cc2cccs2)C(=O)N2C(C(=O)O)=C(COC(N)=O)CS[C@@H]21 [Cefoxitin]
2. CCn1cc(C(=O)O)c(=O)c2ccc(C)nc21 [Nalidixic acid]

result:
["13 + 0.1 mm", "15 + 0.1 mm"]

---

System: B. licheniformis VKPM B-8610
EXPERIMENT_DESCRIPTION: Sensitivity to antibiotics, delay zones of culture growth
Assay type: cell-based, Bacillus licheniformis
CONDITION: strain B. licheniformis VKPM B-8610
What Diameter of delay zones of cultures growth was measured for each of the following?

compound="CCN1CCN(C(=O)N[C@@H](C(=O)N[C@@H]2C(=O)N3C(C(=O)O)=C(CSc4nnnn4C)CS[C@H]23)c2ccc(O)cc2)C(=O)C1=O [Cefoperazone]" obs_value="13 + 0.1 mm"
compound="Cn1nnnc1SCC1=C(C(=O)O)N2C(=O)[C@@H](NC(=O)[C@H](O)c3ccccc3)[C@H]2SC1 [Cefamandole]" obs_value="15 + 0.1 mm"
compound="NC[C@H]1O[C@H](O[C@H]2[C@H](O)[C@@H](O[C@H]3O[C@H](CO)[C@@H](O)[C@H](N)[C@H]3O)[C@H](N)C[C@@H]2N)[C@H](O)[C@@H](O)[C@@H]1O [Kanamycin]" obs_value="21 + 0.1 mm"
compound="O=C(N[C@H](CO)[C@H](O)c1ccc([N+](=O)[O-])cc1)C(Cl)Cl [Chloramphenicol]" obs_value="10 ± 0.1 mm"
compound="CCn1cc(C(=O)O)c(=O)c2cc(F)c(N3CCNCC3)cc21 [Norfloxacin]" obs_value="25 + 0.2 mm"

Hey, can you go through the list below and give me Diameter of delay zones of cultures growth for every item?
1. CC(=O)OCC1=C(C(=O)O)N2C(=O)[C@@H](NC(=O)Cc3cccs3)[C@H]2SC1 [Cephalothin]
2. CC1(C)S[C@@H]2[C@H](NC(=O)[C@H](N)c3ccc(O)cc3)C(=O)N2[C@H]1C(=O)O [Amoscipillin]

result:
21 + 0.3 mm
16 + 0.1 mm
